# method: UWB1.289_BRCA1 ovarian cancer growth, cell-based, BGB or cisplatin combinations (AID 1671459)
# recorded conditions: UWB1.289 BRCA1 ovarian carcinoma, drug combinations, at 0.5 µM, active compounds read high
measured metric: inhibition (%)
State the answer as a number, implicitly in %.

Lookup result for CC1(C)C(C(=O)Nc2ccc(S(=O)(=O)c3ccc(NC(=O)C4C(C)(C)C4(C)C)cc3)cc2)C1(C)C ; measured inhibition: -24.5

Lookup result for O=P(O)(NCCCl)NCCCl ; measured inhibition: -15.6

Lookup result for O=c1[nH]c(=O)n(C2OC(CO)C(O)C2O)cc1F (configuration not stated) ; measured inhibition: 40.6

Lookup result for O=C1CCC[C@@H]2[C@H]3CCCN4CCC[C@@H](CN12)[C@@H]34 ; measured inhibition: 2.45

Lookup result for Cn1c(CCCC(=O)O)nc2cc(N(CCCl)CCCl)ccc21 ; measured inhibition: -6.91

Lookup result for COc1cc(C2c3cc4c(cc3C(O)C3COC(=O)C23)OCO4)cc(OC)c1OC (configuration not stated) ; measured inhibition: 57.4

Lookup result for Cn1c(COP(=O)(NCCBr)NCCBr)cnc1[N+](=O)[O-] ; measured inhibition: -16
